assay: Human HepG2 cell viability assay in 384 well format; format: toxicity, cell-based; parameters: dose 125 nL, time 70.5 hour; concentration not given beside the values; conditions: HepG2 cells, read-out: Inhibition
MEASURED METRIC: cytotoxicity at 70.5 h (%)
Write the number in % without appending the unit.

{"MOLECULE": "CCc1noc(CS(=O)(=O)Cc2ccccc2C)n1", "cytotoxicity at 70.5 h [%]": 15}

Which cytotoxicity at 70.5 h reading was recorded for the molecule Cc1cccc(C2(NC(=O)CCCn3cncn3)CCCC2)c1 ?
-5.53

Give its cytotoxicity at 70.5 h value. Item: CCOc1ccc(CN2CCNC(C(=O)NC3CC3)C2)cc1CO (configuration not stated)
-10.9

Form field: reported cytotoxicity at 70.5 h of O=C(c1cnc2ccccc2c1)N1CCC2(CCN2c2ncccn2)C1 (configuration not stated)
2.76

Give its cytotoxicity at 70.5 h value. Item: Cc1nc(CN(C)C(=O)c2ccc(Cn3cnnn3)cc2)cs1
21.4

Fill in the blank: the reported cytotoxicity at 70.5 h of COc1cc(N2C[C@H]3CCC[C@@H](CN4CCCC4)[C@H]3C2)ncn1 is ____.
-8.91

Data request, read-out cytotoxicity at 70.5 h, for CC1CN(CC(=O)NCCc2ccncc2)Cc2ccccc2O1 (configuration not stated)
-7.7

Entry Cn1cc(CN2CCC(c3[nH]ncc3S(C)(=O)=O)C2)cn1 (configuration not stated) : reported cytotoxicity at 70.5 h = ?
-2.27

Report cytotoxicity at 70.5 h for O=C(O)C1(Cc2cc(-c3cccc(F)c3)no2)CCOCC1 please.
-24

Request the reported cytotoxicity at 70.5 h associated with CN1CC2(CCN(C(=O)C3CCC3)CC2)COc2ccccc2S1(=O)=O
-4.42

Request the reported cytotoxicity at 70.5 h associated with Cc1cnn(CC2CN(Cc3ccc(-n4cccn4)cc3)CCO2)c1 (configuration not stated)
-0.9

# lookup: cytotoxicity at 70.5 h of O=C(NCCn1ccnc1)N1CCCC1c1cccs1 (configuration not stated)
2.2

I'd like to know its cytotoxicity at 70.5 h. The molecule in question is COCCN(C)C[C@@H]1CN(Cc2ccnc3ccccc23)C[C@@H]1CO
-16.1

Requested field: cytotoxicity at 70.5 h. Item: COCCC1(CNC(=O)NCC2CN(C)CCN2C)CCC1 (configuration not stated)
-2.66

What does the data say about its cytotoxicity at 70.5 h? Entry: Cc1cc(NC(=O)NCC(O)c2ccc(F)c(F)c2)n(C)n1 (configuration not stated)
13.9

# query: cytotoxicity at 70.5 h of entry CNCc1ccc(Oc2cncc(C)n2)cc1
-12.9

Form field: reported cytotoxicity at 70.5 h of CC(C)(C)n1cc(C(=O)N2CCCN(Cc3cccs3)CC2)cn1
-2.48

Item COCCn1cncc1CN1CCCC(C)(c2ccccc2)C1 (configuration not stated) has what recorded cytotoxicity at 70.5 h?
18

Suppose we examine the molecule COc1cccc([C@@]2(O)CC[C@@H]3CN(C(=O)c4ccn(C)n4)C[C@@H]32)c1 ; what cytotoxicity at 70.5 h value has been reported?
-6.49

Which cytotoxicity at 70.5 h reading was recorded for the molecule Cc1nc[nH]c1CN(Cc1ccccc1F)C1CC(C)(C)NC(C)(C)C1 ?
-2.5

* * *

The entries below are paired with their reported cytotoxicity at 70.5 h.
test: Human HepG2 cell viability assay in 384 well format; format: toxicity, cell-based; set-up: dose 125 nL, time 70.5 hour; concentration not given beside the values; settings: HepG2 cells, read-out: Inhibition
Give the value, in units of %, as a plain number.

Known cytotoxicity at 70.5 h results, listed for orientation:
{"MOLECULE": "CCOCCCNc1ncc(-c2onc(C)c2C)c(-c2ccco2)n1", "UNIT ANNOTATION": "%", "cytotoxicity at 70.5 h": -10.1}
{"MOLECULE": "CC(CS(C)(=O)=O)N(C(=O)Nc1ccc(F)cc1F)C1CC1 (centres undefined)", "UNIT ANNOTATION": "%", "cytotoxicity at 70.5 h": -1.48}
{"MOLECULE": "COc1ccc(C(=O)N(C2CC2)C2CC(=O)NC2=O)cc1 (centres undefined)", "UNIT ANNOTATION": "%", "cytotoxicity at 70.5 h": -2.33}
{"MOLECULE": "COc1ccc(-c2ncc(-c3nccn3CCN(C)C)cn2)cc1", "UNIT ANNOTATION": "%", "cytotoxicity at 70.5 h": -10.5}
{"MOLECULE": "Cn1nc(CC(C)(C)C)cc1NC(=O)c1ccc2[nH]nnc2c1", "UNIT ANNOTATION": "%", "cytotoxicity at 70.5 h": 19}
{"MOLECULE": "CN(C)C(=O)COC1COC2(CCN(c3cnccn3)CC2)C1 (centres undefined)", "UNIT ANNOTATION": "%", "cytotoxicity at 70.5 h": 1.25}
{"MOLECULE": "Cc1cn[nH]c1C1COCCN1C(=O)c1ccc2c(c1)CCCC2 (centres undefined)", "UNIT ANNOTATION": "%", "cytotoxicity at 70.5 h": -3.65}
{"MOLECULE": "CCOCCN1CCN(CC(=O)N2CCCC2)CC1C (centres undefined)", "UNIT ANNOTATION": "%", "cytotoxicity at 70.5 h": -7.94}

Need cytotoxicity at 70.5 h, item c1ccc(COC[C@H]2CC[C@H]3[C@H](CCN3c3ncccn3)O2)nc1
-3.8

Requested field: cytotoxicity at 70.5 h. Item: Cc1cc(C)nc(N(C)CCN(C)C2CCCC2)n1
-6.11

State the recorded cytotoxicity at 70.5 h for this entry: Cn1c(CN2CC[C@](C)(O)C(C)(C)C2)cc2ccccc21
-5.32

Looking for the measured cytotoxicity at 70.5 h of Cc1nc(CN2C(=O)COC3(CCN(CC4CC4)CC3)C2C)cs1 (centres undefined) , can you help?
2.37

Can you look up the measured cytotoxicity at 70.5 h of Cc1cnc(C(=O)N2CCCCC2c2[nH]ncc2S(C)(=O)=O)cn1 (centres undefined) for me?
3.44

Name the reported cytotoxicity at 70.5 h value associated with the molecule Cn1ccnc1C(=O)N[C@@H]1CN(Cc2ccc(F)cc2)[C@@H]2CCCO[C@@H]21
-3.63

Give the measured cytotoxicity at 70.5 h of COc1ccc(C(=O)Nc2ccccc2C(C)C)c(OC)n1 .
5.28

# get_value(readout='cytotoxicity at 70.5 h', item= CN(Cc1ccc2c(c1)OCO2)Cc1nc2c(cnn2C)c(=O)[nH]1 )
1.92

Which cytotoxicity at 70.5 h is listed for Cc1ccc2c(c1)C1(CCNCC1)CC2OCC1CC1 (centres undefined) ?
-1.43

* * *

assay: Human HepG2 cell viability assay in 384 well format; assay type: toxicity, cell-based; set-up: dose 125 nL, time 70.5 hour; concentration not given beside the values; conditions: HepG2 cells, read-out: Inhibition
MEASURED METRIC: cytotoxicity at 70.5 h (%)
Give your result in % as a bare value.

{"COMPOUND": "CC(C)c1cc(C(=O)N2CCNCC2C(=O)NCc2ccncc2)on1 (configuration not stated)", "cytotoxicity at 70.5 h (%)": -2.19}
{"COMPOUND": "COc1ccc(CC(=O)N2Cc3nccn3CC(CN(C)C)C2)cc1 (configuration not stated)", "cytotoxicity at 70.5 h (%)": 20.5}

Form field: reported cytotoxicity at 70.5 h of Cn1cc(N2CC3(CCN(CC4CC4)C3)CC2=O)cn1 (configuration not stated)
-2.96

Would you kindly share the measured cytotoxicity at 70.5 h for CO[C@H]1CN(S(=O)(=O)c2ccccc2F)C[C@@]12CCCO2 ?
-7.14

Bench note: what cytotoxicity at 70.5 h did CN(C)CC1CSCCCN1C(=O)c1ccc(-n2cccc2)cc1 (configuration not stated) show?
-4.81

Could you share which cytotoxicity at 70.5 h value was measured for O=C(c1cnc(O)cn1)N1CCC(CN2CCOCC2)CC1 ?
-13.8

Entry CC(=O)NCCNC(=O)c1cc(Br)c2c(c1)OCCO2 has what cytotoxicity at 70.5 h?
-11.6

Fill in the blank: the reported cytotoxicity at 70.5 h of Cc1nn(CC(=O)NCC2(C(N)=O)CCOCC2)c(C)c1Cl is ____.
-8.87

* * *

experiment: Human HepG2 cell viability assay in 384 well format; assay type: toxicity, cell-based; set-up: dose 125 nL, time 70.5 hour; concentration not given beside the values; details: HepG2 cells, read-out: Inhibition
MEASURED METRIC: cytotoxicity at 70.5 h

{"COMPOUND": "CCn1cc(NC(=O)N2CCN(C(=O)Oc3ccccc3)CC2)cn1", "MEASURED METRIC": "cytotoxicity at 70.5 h", "RESULT": "-4.12%"}
{"COMPOUND": "O=C(O)[C@@H]1CN(C(=O)CSCC2CC2)C[C@H]1c1ccccn1", "MEASURED METRIC": "cytotoxicity at 70.5 h", "RESULT": "-1.99%"}
{"COMPOUND": "O=C(O)c1cccc(S(=O)(=O)N2CCOc3ccccc32)c1", "MEASURED METRIC": "cytotoxicity at 70.5 h", "RESULT": "-12.8%"}
{"COMPOUND": "O=C(c1ccco1)N1C[C@H]2CCCN(CC3CC3)[C@H]2C1", "MEASURED METRIC": "cytotoxicity at 70.5 h", "RESULT": "-16.9%"}
{"COMPOUND": "Cc1cnn(CC2CCCCN2Cc2nnsc2Cl)c1 (stereo unspecified)", "MEASURED METRIC": "cytotoxicity at 70.5 h", "RESULT": "-7.35%"}

Recorded cytotoxicity at 70.5 h for O=C(NCCC1COc2ccccc2O1)c1ccc(N2CC(O)C2)nc1 (stereo unspecified) , please?
-6.19%

Request the reported cytotoxicity at 70.5 h associated with CCC(CCNC(=O)c1cc(C2CC2)nc2c1cnn2C)n1cccn1 (stereo unspecified)
-19.4%

What value of measured cytotoxicity at 70.5 h is listed for CC(c1ccccc1Cl)N1CCN(C(=O)c2ccc(=O)[nH]c2)CC1 (stereo unspecified) ?
2%

State the recorded cytotoxicity at 70.5 h for this entry: Cc1ncc2c(n1)CN(CC(=O)Nc1ccc(Cl)cn1)CC2
-13.8%

Which cytotoxicity at 70.5 h is reported for this compound? CN(C)Cc1ccc(C2CCCCN2C(=O)c2cc(=O)[nH]c(=O)[nH]2)cc1 (stereo unspecified)
-5.8%

If you can, please state the reported cytotoxicity at 70.5 h value of Cn1ccnc1CN1CCC2(CC1)COCCN(c1ncccn1)C2 .
-5.62%
